# targetOrTestSystem: human PAD4 (Homo sapiens, UniProt Q9UM07)
# Construct: human PAD4 (NM_012387), A2P663, was PCR amplified; His-SUMO (N, cleaved yes)
# Sequence (Q9UM07 2-663): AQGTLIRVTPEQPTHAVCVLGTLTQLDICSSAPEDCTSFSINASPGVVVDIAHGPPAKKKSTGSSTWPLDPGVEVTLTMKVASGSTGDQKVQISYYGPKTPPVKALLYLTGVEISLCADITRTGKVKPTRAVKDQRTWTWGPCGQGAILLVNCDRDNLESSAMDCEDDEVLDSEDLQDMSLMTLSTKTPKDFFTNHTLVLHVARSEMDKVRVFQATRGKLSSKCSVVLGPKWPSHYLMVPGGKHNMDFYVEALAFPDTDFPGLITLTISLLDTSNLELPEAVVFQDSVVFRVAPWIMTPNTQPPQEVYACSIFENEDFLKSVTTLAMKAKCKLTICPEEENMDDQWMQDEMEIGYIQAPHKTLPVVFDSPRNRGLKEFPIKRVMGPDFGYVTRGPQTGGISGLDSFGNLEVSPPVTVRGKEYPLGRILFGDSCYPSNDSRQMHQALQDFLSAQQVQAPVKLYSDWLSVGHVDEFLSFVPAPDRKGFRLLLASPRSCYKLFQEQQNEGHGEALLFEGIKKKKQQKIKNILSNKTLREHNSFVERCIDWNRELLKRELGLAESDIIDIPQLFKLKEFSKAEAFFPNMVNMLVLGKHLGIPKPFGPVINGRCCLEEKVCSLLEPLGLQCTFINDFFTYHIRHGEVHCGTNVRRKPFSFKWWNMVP
# assayOverview: In vitro PAD4 BAEE biochemical assay
# testParameters: human PAD4, BAEE substrate; 5 nM PAD4, 2 mM calcium chloride, 3 mM BAEE; geometric mean of multiple experiments
assayEndpoint: IC50 (nM)

Example entries and their recorded answers appear below.
# molecule, unitsLabel, IC50
measured = [
    ("CCc1ccc2cc(-c3nc4cc(C(=O)N5[C@H]6CC[C@@H]5[C@H](N)C6)cc(OC)n4c3C)n(C[C@@H]3C[C@@H]3C(F)(F)F)c2n1 [Example 501]", "nM", 827),
    ("COc1cc(C(=O)N2[C@H]3CC[C@@H]2[C@H](N)C3)cc2nc(-c3cc4ccc([C@@H](C)N5CCN(C)C5=O)nc4n3CC3CC3)c(C)n12 [Example 270]", "nM", 34.7),
    ("COc1cc(C(=O)N2[C@H]3CC[C@@H]2[C@H](N)C3)cc2nc(-c3cc4ccc([C@@H](C)NC(=O)c5cncs5)nc4n3CC3CC3)c(C)n12 [Example 72]", "nM", 32.7),
]

(I) COc1cc(C(=O)N2[C@H]3CC[C@@H]2[C@H](N)C3)cc2nc(-c3cc4ccc([C@@H](C)NC(=O)N5CC(O)(C(F)(F)F)C5)nc4n3CC3CC3)c(C)n12 [Example 197]
(II) COc1cc(C(=O)N2[C@H]3CC[C@@H]2[C@H](N)C3)cc2nc(-c3cc4ccc(OCC(=O)N(C)C)nc4n3CC3CC3)c(C)n12 [Example 624]
(III) COc1cc(C(=O)N2CC[C@H]3CCN[C@H]3C2)cc2nc(-c3cc4ccc([C@@H](C)NC(=O)c5ccccc5)nc4n3CC3CC3)c(C)n12 [Example 59]
[ask] Put the items in sequence by IC50, from largest down. Reply: labels, ordered per the request.
[reply] III, II, I

FYI, the data here is from patent US12240862B2.
